Collected pKi for UniProt:P00734 across several studies; compounds listed below.
pKi: −log10 of the molar value.
measurement.type: pKi

// worked examples, pKi included
compound	pKi
N=C(N)c1ccc(CNC(=O)[C@@H]2CCCN2C(=O)[C@@H](CCC(=O)N2CCN(C(=O)OCc3ccccc3)CC2)NS(=O)(=O)Cc2ccccc2)cc1	8.01
COC(=N)NS(=O)(=O)CC12CCC(CC1=O)C2(C)C (stereo unspecified)	6.47
CN(C(=O)[C@H](Cc1ccc(CN)cc1)NS(=O)(=O)c1ccc2c(c1)CCCCC2)C1CCCC1	8.48
Cc1ccc(NS(=O)(=O)Cc2ccccc2)c(=O)n1CC(=O)NCc1ccc2[nH]ncc2c1	8.06
CC[C@H](C)[C@H](NC(=O)[C@H]1CCCN1C(=O)[C@H](CCC(=O)O)NC(=O)[C@@H](Cc1ccc(O)cc1)NC(=O)CC(N)C(=O)CCCCCCCNc1cccc2c(N(C)C)cccc12)C(=O)N1CCC[C@@H]1C(=O)N[C@@H](CCC(=O)O)C(=O)N[C@H](CCC(=O)O)C(=O)N[C@@H](C)C(=O)N[C@H](CC1CCCCC1)C(=O)N[C@@H](CCC(=O)O)C(=O)O (stereo partly specified)	7.00

1 = N=C(N)NCCCC(NC(=O)[C@@H]1CC[C@H]2CN(C(=O)CCc3ccccc3F)CC(=O)N21)C(=O)c1nccs1 (stereo partly specified)
2 = Cc1ccc(NS(=O)(=O)Cc2ccc(F)cc2Cl)c(=O)n1CC(=O)NC1CCc2nc(N)sc2C1 (stereo unspecified)
Inquiry: Just curious, which one has the larger pKi reading, 1 or 2 ? Please indicate the selected item by its label.
Reply text: 1
(1: 9.04, 2: 6.80)

P = N=C(N)c1ccc2ccc(Cn3c4ccccc4c4ccc(OC5CCNCC5)cc43)cc2c1
Q = C[C@H](NC(=O)CNC(=O)Nc1ccc(C(=N)N)cc1)c1cccc(Br)c1
R = N=C(N)c1ccc(NC(C(=O)NCc2ccccc2)c2ccccc2)cc1 (stereo unspecified)
S = CS(=O)(=O)c1ccccc1-c1ccc(NC(=O)c2conc2-c2cccc(C(=N)N)c2)cc1
Inquiry: # ascending order, key=pKi Put the labels in the requested order and write them down.
Reply text: Q, S, P, R

a = Cc1cccc(C(=O)Nc2ccc(C(C)NC(=O)CNC(=O)Nc3ccc(C(=N)N)cc3)cc2)c1 (stereo unspecified)
b = COC(=O)CCCN(c1ccc2nc(C)n(Cc3ccc4ccc(C(=N)N)cc4c3)c2c1)C1CCN(C(C)=N)CC1
Inquiry: Just curious, which one has the larger pKi reading, a or b ? Please indicate the selected item by its label.
Reply text: b

a = Cc1ccc(NS(=O)(=O)Cc2ccccc2)c(=O)n1CC(=O)NCc1cccc(Cl)c1
b = N=C(N)c1cccc(Oc2ccc3c4ccccc4n(Cc4ccc5ccc(C(=N)N)cc5c4)c3c2)c1
c = CCOC(=O)CN1CCCCC1CCNc1nccc2oc(Cc3cc(Cl)ccc3-n3cncn3)nc12 (stereo unspecified)
Inquiry: # ascending order, key=pKi Put the labels in the requested order and write them down.
Reply text: b, a, c

###

Collected Ki for Prothrombin (Homo sapiens, UniProt P00734) across several studies; compounds listed below.
measurement.type: Ki (nM)

compound	target.desc	measurement.type	measured.result
CC1(C)CNc2c(cc(CCO)cc2S(=O)(=O)N[C@@H](Cc2nc3ccccc3s2)C(=O)N2CCC(CCF)CC2)C1	Prothrombin (Homo sapiens, UniProt P00734)	Ki	39
N=C(N)c1cccc(C(=O)NC(C(=O)NCC2CCC(CN)CC2)c2ccccc2)c1 (configuration not stated)	Prothrombin (Homo sapiens, UniProt P00734)	Ki	6500
CC(C)(C)OC(=O)N[C@@H](C(=O)N1CCC[C@H]1C(=O)NCc1csc(N)c1)C(C1CCCCC1)C1CCCCC1	Prothrombin (Homo sapiens, UniProt P00734)	Ki	560

A = N=C(N)NCCC(=O)N1CCN(C(=O)[C@H](Cc2cccc(C(=N)N)c2)NS(=O)(=O)c2ccc3cc4ccccc4cc3c2)CC1
B = CCCCN1CCC[C@H]1C(=O)NCc1ccc(C(=N)N)cc1
Inquiry: Just curious, which one has the larger Ki reading, A or B ? Please indicate the selected item by its label.
Reply text: B

A = Nc1ccc(C[C@H](NS(=O)(=O)c2cnccc2N[C@@H](Cc2ccccc2)CN2CCCC2)C(=O)N2CCC(CCF)CC2)cc1
B = N=C(N)c1ccc(CNC(=O)C(CC2CCNCC2)NC(=O)[C@@H](CC2CCCCC2)NCC(=O)O)cc1 (mixture of isomers)
C = N=C(N)N1CCCC(CNC(=O)[C@@H](Cc2ccc([N+](=O)[O-])cc2)NS(=O)(=O)c2ccc3ccccc3c2)C1 (some centres not stated)
D = N[C@@H](C(=O)N1CCC[C@H]1C(=O)NCc1cccc(Cl)c1)C1CCCC1
E = Cc1nc(-c2ccccc2)ncc1C(=O)N[C@@H](CCCN=C(N)N)B1O[C@@H]2CC3CC(C3(C)C)[C@]2(C)O1 (some centres not stated)
Inquiry: # ascending order, key=Ki Put the labels in the requested order and write them down.
Reply text: E, C, A, D, B

1 = Cc1nc[nH]c1CNC(=O)Cn1c(C)cnc(NCCc2ccccc2)c1=O
2 = CC1(C)CNc2c(cccc2S(=O)(=O)N[C@@H](Cc2nc3ccccc3s2)C(=O)N2CCC(CCN)CC2)C1
3 = Cc1cnc(NCC(F)(F)c2ccccc2)c(=O)n1CC(=O)NCc1ccc2c(N)noc2c1
Inquiry: Order these by Ki, descending, and give the full ranking. Put the labels in the requested order and write them down.
Reply text: 2, 1, 3
(2: 1180 nM, 1: 53 nM, 3: 2.5 nM)
